system: Aβ42 production; assay: Quantification of Aβ peptide in culture of neurons from rat fetus brain (Aβ ELISA); format: cell-based; settings: Neuron, 72 h; rat primary neuronal culture (cerebral cortex, embryonic day 18 Wistar rats); medium collected three days after addition of compound; Aβx-42 ELISA; read-out: Activity for reducing Aβ42 production IC50
pIC50: −log10 of the molar value.
Values of pIC50 greater than or equal to 7 map to criterion met; values below map to criterion not met.

{"columns": ["compound", "category_label"],
 "data": [
  ["COc1cc(/C=C2\\OC(C)(C)CN([C@@H](CO)c3ccc(F)cc3)C2=O)ccc1-n1cnc(C)c1 [Example 28]", "criterion met"],
  ["COc1cc(/C=C2\\OCCN([C@H](c3cc(F)c(F)c(F)c3)[C@@H](C)O)C2=O)ccc1-n1cnc(C)c1 [Example 30]", "criterion met"],
  ["COc1cc(/C=C2\\O[C@@H](C)CN(Cc3cc(F)c(F)c(F)c3)C2=O)ccc1-n1cnc(C)c1 [Example 3]", "criterion met"],
  ["COc1cc(/C=C2\\OC[C@H]3COC[C@@H](c4cc(F)c(F)c(F)c4)N3C2=O)ccc1-n1cnc(C)c1 [Example 108]", "criterion met"]
]}

With those in mind, consider the next compound.
Q: Say whether COc1cc(/C=C2\OCCN(Cc3ccc(F)c(F)c3F)C2=O)ccc1-n1cnc(C)c1 [Example 2] shows pIC50 of 7 or more.
A: criterion not met

###

tested on: Aβ42 production; assay: Quantification of Aβ peptide in culture of neurons from rat fetus brain (Aβ ELISA); assay type: cell-based; conditions: Neuron, 72 h; rat primary neuronal culture (cerebral cortex, embryonic day 18 Wistar rats); medium collected three days after addition of compound; Aβx-42 ELISA; read-out: Activity for reducing Aβ42 production IC50
endpoint_label: IC50 (nM)
State the answer as a number, implicitly in nM.

{"columns": ["molecule", "IC50 / nM"],
 "data": [
  ["COc1cc(/C=C2\\OC(C)(C)CN([C@@H](C)c3ccc(F)nc3F)C2=O)ccc1-n1cnc(C)c1 [Example 55]", 111],
  ["Cc1cn(-c2ccc(/C=C3\\C[C@H](C)CN([C@H](c4cc(F)c(F)c(F)c4)[C@@H](C)O)C3=O)cc2F)cn1 [Example 84]", 37],
  ["COc1cc(/C=C2\\O[C@@H](C)CN([C@H](C)c3ccc(Cl)nc3)C2=O)ccc1-n1cnc(C)c1 [Example 19]", 54],
  ["COc1cc(/C=C2\\O[C@@H](C)CN([C@H](c3cc(F)c(F)c(F)c3)[C@@H](C)O)C2=O)ccc1-n1cnc(C)c1 [Example 26]", 6]
]}

Q: Reported IC50, molecule COc1cc(/C=C2\OC(C)(C)CN([C@H](c3ccc(F)cc3)[C@@H](C)O)C2=O)ccc1-n1cnc(C)c1 [Example 33] : ____
A: 63

Q: Reported IC50, molecule COc1cc(/C=C2\OC(C)(C)CN([C@@H](C)c3ccc(Cl)cn3)C2=O)ccc1-n1cnc(C)c1 [Example 60] : ____
A: 96

Q: Reported IC50, molecule COc1cc(/C=C2\O[C@H](C)CN(Cc3cc(F)c(F)c(F)c3)C2=O)ccc1-n1cnc(C)c1 [Example 4] : ____
A: 69

###

system: Aβ42 production; test: Quantification of Aβ peptide in culture of neurons from rat fetus brain (Aβ ELISA); type: cell-based; conditions: Neuron, 72 h; rat primary neuronal culture (cerebral cortex, embryonic day 18 Wistar rats); medium collected three days after addition of compound; Aβx-42 ELISA; read-out: Activity for reducing Aβ42 production IC50
endpoint_label: IC50 (nM)
State the answer as a number, implicitly in nM.

# count of solved cases: 5
{"columns": ["test_smiles", "IC50 / nM"],
 "data": [
  ["COc1cc(/C=C2\\O[C@H](C)CN([C@@H](C)c3ccc(F)cc3)C2=O)ccc1-n1cnc(C)c1", 113],
  ["Cc1cn(-c2ccc(/C=C3\\OC(C)(C)CN([C@H](c4cc(F)c(F)c(F)c4)[C@@H](C)O)C3=O)cc2F)cn1", 141],
  ["COc1cc(/C=C2\\O[C@@H](C)CN([C@@H](C)c3ccnc(F)c3F)C2=O)ccc1-n1cnc(C)c1", 36],
  ["COc1cc(/C=C2\\OC(C)(C)CN([C@H]3CCOc4ccccc43)C2=O)ccc1-n1cnc(C)c1", 101],
  ["COc1cc(/C=C2\\OCCN(Cc3cc(F)c(F)c(F)c3)C2=O)ccc1-n1cnc(C)c1", 77]
]}

Q: Hello, I am looking for reported IC50 with Aβ42 production for COc1cc(/C=C2\OC(C)(C)CN([C@@H](C)c3ccnc(F)c3F)C2=O)ccc1-n1cnc(C)c1 . Could you help?
A: 67

Q: Hello, I am looking for reported IC50 with Aβ42 production for COc1cc(/C=C2\O[C@@H](C)CN([C@@H](C)c3ccnc(Cl)c3)C2=O)ccc1-n1cnc(C)c1 . Could you help?
A: 67

Q: Hello, I am looking for reported IC50 with Aβ42 production for COc1cc(/C=C2\OC[C@H]3CCC[C@@H](c4ccc(F)c(F)c4)N3C2=O)ccc1-n1cnc(C)c1 . Could you help?
A: 141

Q: Hello, I am looking for reported IC50 with Aβ42 production for COc1cc(/C=C2\O[C@@H](C)CN([C@H](C)c3ccnc(F)c3F)C2=O)ccc1-n1cnc(C)c1 . Could you help?
A: 141

Q: Hello, I am looking for reported IC50 with Aβ42 production for COc1cc(/C=C2\O[C@@H](C)CN(Cc3ccc(F)c(F)c3F)C2=O)ccc1-n1cnc(C)c1 . Could you help?
A: 125

Q: Hello, I am looking for reported IC50 with Aβ42 production for COc1cc(/C=C2\O[C@H](C)CN(Cc3ccc(F)c(F)c3F)C2=O)ccc1-n1cnc(C)c1 . Could you help?
A: 156
